Consider molecules characterized by their IC50 with hERG channel (Homo sapiens).
Sequence (Q12809 whole entry): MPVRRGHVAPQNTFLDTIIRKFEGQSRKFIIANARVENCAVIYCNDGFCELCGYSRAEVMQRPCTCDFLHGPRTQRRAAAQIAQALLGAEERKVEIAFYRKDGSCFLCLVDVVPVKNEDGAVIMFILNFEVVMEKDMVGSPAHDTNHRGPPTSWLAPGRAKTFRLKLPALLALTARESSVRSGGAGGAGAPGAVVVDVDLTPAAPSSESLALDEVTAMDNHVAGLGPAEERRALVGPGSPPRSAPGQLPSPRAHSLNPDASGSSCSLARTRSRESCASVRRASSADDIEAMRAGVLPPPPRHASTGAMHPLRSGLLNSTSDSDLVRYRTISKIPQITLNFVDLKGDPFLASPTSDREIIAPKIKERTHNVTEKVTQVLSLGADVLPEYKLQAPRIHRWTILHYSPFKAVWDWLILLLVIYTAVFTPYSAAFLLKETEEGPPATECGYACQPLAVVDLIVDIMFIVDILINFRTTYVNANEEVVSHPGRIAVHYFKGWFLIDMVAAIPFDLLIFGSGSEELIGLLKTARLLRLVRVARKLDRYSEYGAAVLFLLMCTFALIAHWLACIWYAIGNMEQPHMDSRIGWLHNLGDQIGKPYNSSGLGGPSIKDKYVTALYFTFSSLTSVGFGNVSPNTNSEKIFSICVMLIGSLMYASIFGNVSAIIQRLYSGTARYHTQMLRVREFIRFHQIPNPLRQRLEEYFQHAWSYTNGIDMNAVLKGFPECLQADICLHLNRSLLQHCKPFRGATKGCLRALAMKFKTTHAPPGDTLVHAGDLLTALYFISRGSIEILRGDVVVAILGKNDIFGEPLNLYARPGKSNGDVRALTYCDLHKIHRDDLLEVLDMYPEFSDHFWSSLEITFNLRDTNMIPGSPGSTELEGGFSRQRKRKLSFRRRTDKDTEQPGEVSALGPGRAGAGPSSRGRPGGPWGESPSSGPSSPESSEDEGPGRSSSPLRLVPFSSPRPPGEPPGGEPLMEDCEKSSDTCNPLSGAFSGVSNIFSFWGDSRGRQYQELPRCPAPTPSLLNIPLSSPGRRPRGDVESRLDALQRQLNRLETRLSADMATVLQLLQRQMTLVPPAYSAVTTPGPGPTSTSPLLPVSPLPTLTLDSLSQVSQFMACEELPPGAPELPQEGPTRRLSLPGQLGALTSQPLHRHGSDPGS

Study these solved cases before continuing.
> print(dat)
                            chemical.string  property.measured  experimental.result
1  COc1ccc(-c2noc(-c3ccc4c(c3)nnn4CC(C)(C)O)n2)c(C)c1               IC50              > 10 µM
2   CC(C)Oc1ccc(-c2ncc(-c3ccccn3)cn2)cc1C#N               IC50              > 10 µM

Now, please, on to the next molecule.
Query: # query: IC50 | item CC(C)Oc1ccc(-c2ncc(-c3cccnc3)cn2)cc1C#N | system: hERG channel (Homo sapiens)
Result: > 10 µM

----------
Reported EC50 values for a set of compounds
Assay target: human sphingosine-1-phosphate receptor 1 (S1P1) (Homo sapiens)
Test: Inhibition of cAMP production (HTRF cAMP HiRange), S1P1 CHO-K1 cells
Format: cell-based
Run parameters: inhibition of cAMP production; potency; read-out: hS1P1 CAMP pEC50 (converted)
Sequence (P21453 whole entry): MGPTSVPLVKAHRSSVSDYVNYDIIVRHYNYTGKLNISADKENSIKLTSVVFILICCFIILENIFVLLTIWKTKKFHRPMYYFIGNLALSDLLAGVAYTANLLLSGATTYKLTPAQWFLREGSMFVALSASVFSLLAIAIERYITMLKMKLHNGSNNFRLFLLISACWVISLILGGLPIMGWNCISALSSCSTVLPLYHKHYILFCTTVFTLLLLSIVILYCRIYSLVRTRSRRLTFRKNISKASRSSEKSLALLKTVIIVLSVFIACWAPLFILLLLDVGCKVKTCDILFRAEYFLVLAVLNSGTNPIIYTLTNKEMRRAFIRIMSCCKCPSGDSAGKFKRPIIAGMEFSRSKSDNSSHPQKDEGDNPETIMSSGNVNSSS

> print(dat)
                            chemical.string  experimental.result
1  Cc1ccccc1-c1noc(-c2ccc3c(c2)nnn3C2CC2)n1             < 316 nM

Now, please, on to the next compound.
Query: # query: EC50 | item OCCn1nnc2cc(-c3noc(-c4ccccc4Br)n3)ccc21 | system: human sphingosine-1-phosphate receptor 1 (S1P1) (Homo sapiens)
Result: > 316 nM

----------
Reported EC50 values for a set of compounds
Assay target: human sphingosine-1-phosphate receptor 1 (S1P1) (Homo sapiens)
Test: β-Arrestin2 recruitment assay (PathHunter), S1P1 CHO-K1 cells
Assay type: cell-based
Run parameters: β-arrestin2 recruitment, S1P1; read-out: hS1P1 B-arrestin2 pEC50 (converted)
Sequence (P21453 whole entry): as above
Sequence (P32121 whole entry partner): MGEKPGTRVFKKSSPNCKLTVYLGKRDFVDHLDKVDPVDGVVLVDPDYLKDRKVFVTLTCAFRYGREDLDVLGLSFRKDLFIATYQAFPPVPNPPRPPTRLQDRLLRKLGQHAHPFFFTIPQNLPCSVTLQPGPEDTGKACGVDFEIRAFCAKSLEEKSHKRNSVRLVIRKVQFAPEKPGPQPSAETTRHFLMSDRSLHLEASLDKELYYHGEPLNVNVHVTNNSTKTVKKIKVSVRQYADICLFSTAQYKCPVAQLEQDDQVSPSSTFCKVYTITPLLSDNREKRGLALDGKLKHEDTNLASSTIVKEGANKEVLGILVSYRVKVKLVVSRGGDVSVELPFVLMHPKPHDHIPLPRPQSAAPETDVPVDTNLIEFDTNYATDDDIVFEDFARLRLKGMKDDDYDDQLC

> print(dat)
                                   compound  experimental.result
1  O=C1CNc2ccc(-c3nc(-c4cn[nH]c4)no3)cc2N1 [Compound 645]              > 10 µM

Query: Which value of EC50 has been reported for CC(C)Nc1ccc(-c2nc(-c3ccc4c(c3)NC(=O)C4)no2)cc1C#N [Compound 496] in the records?
Result: < 10 µM

Query: Which value of EC50 has been reported for CC1(C)Oc2ccc(-c3nc(-c4ccncc4)no3)cc2C1=O [Compound 480] in the records?
Result: > 10 µM

Query: Which value of EC50 has been reported for CCCCC1CC(=O)c2ccc(-c3nc(-c4cccnc4)no3)cc2O1 (stereo not drawn) [Compound 633] in the records?
Result: > 10 µM

Query: Which value of EC50 has been reported for CCC1(CC)CC(=O)c2cc(-c3nc(-c4cccc(OC)n4)no3)ccc2O1 [Compound 553] in the records?
Result: < 10 µM

Query: Which value of EC50 has been reported for CCC1(CC)CC(=O)c2cc(-c3nc(-c4ccnc(S(N)(=O)=O)c4)no3)ccc2O1 [Compound 616] in the records?
Result: < 10 µM

----------
Reported EC50 values for a set of compounds
Assay target: human sphingosine-1-phosphate receptor 1 (S1P1) (Homo sapiens)
Test: β-Arrestin2 recruitment assay (PathHunter), S1P1 CHO-K1 cells
Assay type: cell-based
Run parameters: β-arrestin2 recruitment; potency; read-out: hS1P1 B-arrestin2 pEC50 (converted)

Study these solved cases before continuing.
> print(dat)
                            chemical.string  experimental.result
1  O=C1CC2(CCOCC2)Oc2ccc(-c3nc(-c4ccncc4)no3)cc21              > 10 µM
2  COc1ccccc1-c1nnc(-c2ccc3[nH]oc(=O)c3c2)o1              > 10 µM
3  c1ccc(-c2noc(-c3ccc4c(c3)nnn4C3CCCC3)n2)cc1              > 10 µM
4  CSc1ccccc1-c1nc(-c2ccc3c(c2)nnn3C(C)C)no1              < 10 µM
5  CC(C)n1ccc2cc(-c3nc(-c4cccc5c4OCCC5)no3)ccc21              < 10 µM
6  CC(C)n1nnc2cc(-c3noc(-c4ccccc4C(F)(F)F)n3)ccc21              < 10 µM
7  Brc1ccccc1-c1nc(-c2ccc3c(c2)nnn3Cc2ccccc2)no1              > 10 µM
8     O=C1CCOc2ccc(-c3nc(-c4ccncc4)no3)cc21              > 10 µM

Query: Which value of EC50 has been reported for Cc1ccccc1-c1noc(-c2ccc3scnc3c2)n1 in the records?
Result: > 10 µM

----------
Reported Emax values for a set of compounds
Assay target: UniProt:P21453
Test: Inhibition of cAMP production (HTRF cAMP HiRange), S1P1 CHO-K1 cells
Format: cell-based
Run parameters: CHO-K1; efficacy normalized to maximum efficacy of fingolimod; read-out: hS1P1 CAMP SPAN

> print(dat)
                                   compound  experimental.result
1  CCC1(CC)CC(=O)c2cc(-c3nc(-c4ccc5[nH]c(=O)[nH]c5c4)no3)ccc2O1 [Compound 539]                < 75%

Query: Which value of Emax has been reported for Cc1ccncc1-c1nc(-c2ccc3c(c2)nnn3CC(C)(C)CO)no1 [Compound 541] in the records?
Result: < 75%

Query: Which value of Emax has been reported for Cc1ccccc1-c1cc(-c2ccc3c(c2)nnn3C(C)C)c[nH]1 [Compound 601] in the records?
Result: > 75%

Query: Which value of Emax has been reported for CC(C)n1nnc2cc(-c3noc(-c4ncccc4O)n3)ccc21 [Compound 602] in the records?
Result: < 75%

Query: Which value of Emax has been reported for Cn1cnc2ccc(-c3nnc(-c4ccc(NCC(F)F)c(C#N)c4)o3)cc21 [Compound 580] in the records?
Result: > 75%

Query: Which value of Emax has been reported for CC(C)Nc1ccc(-c2nc(-c3ccc4c(c3)NC(=O)CC4)no2)cc1C#N [Compound 435] in the records?
Result: > 75%

Query: Which value of Emax has been reported for Cc1ccccc1-c1nc(-c2ccc3c(ccn3C(C)C)c2)no1 [Compound 389] in the records?
Result: > 75%

Query: Which value of Emax has been reported for Cc1cnccc1-c1noc(-c2ccc3c(c2)nnn3CC(C)(C)O)n1 [Compound 597] in the records?
Result: > 75%

Query: Which value of Emax has been reported for CC(C)Nc1ccc(-c2nnc(-c3ccc4c(c3)ncn4CCO)o2)cc1C#N [Compound 574] in the records?
Result: > 75%

Query: Which value of Emax has been reported for CC(C)n1nnc2cc(-c3nc4cccc(Br)c4o3)ccc21 [Compound 429] in the records?
Result: > 75%

----------
Reported EC50 values for a set of compounds
Assay target: human sphingosine-1-phosphate receptor 1 (S1P1) (Homo sapiens)
Test: β-Arrestin2 recruitment assay (PathHunter), S1P1 CHO-K1 cells
Assay type: cell-based
Run parameters: β-arrestin2 recruitment, S1P1; read-out: hS1P1 B-arrestin2 pEC50 (converted)

> print(dat)
                                   compound                              assay.target  experimental.result
1  CC(C)n1ccc2cc(-c3nc(-c4ccccc4F)ns3)ccc21  human sphingosine-1-phosphate receptor 1 (S1P1) (Homo sapiens)              > 10 µM
2  CC(C)n1nnc2cc(-c3noc(-c4ccccc4N(C)C)n3)ccc21  human sphingosine-1-phosphate receptor 1 (S1P1) (Homo sapiens)              < 10 µM
3  Cc1ccccc1-c1noc(-c2cnc3c(c2)nnn3C(C)C)n1  human sphingosine-1-phosphate receptor 1 (S1P1) (Homo sapiens)              < 10 µM
4  COc1ccccc1-c1noc(-c2ccc3c(c2)NC(=O)CN3)n1  human sphingosine-1-phosphate receptor 1 (S1P1) (Homo sapiens)              > 10 µM
5  CCC1(CC)CC(=O)c2cc(-c3nc(-c4ccnc(N)c4)no3)ccc2O1  human sphingosine-1-phosphate receptor 1 (S1P1) (Homo sapiens)              < 10 µM

Query: Which value of EC50 has been reported for CN1C(=O)CCc2cc(-c3nc(-c4cccnc4)no3)ccc21 in the records?
Result: > 10 µM

Query: Which value of EC50 has been reported for CCC1(CC)CC(=O)c2cc(-c3nc(-c4ccsc4)no3)ccc2O1 in the records?
Result: < 10 µM

Query: Which value of EC50 has been reported for N#Cc1cc(-c2nnc(-c3ccc4c(c3)ncn4CCO)o2)ccc1NCC(F)F in the records?
Result: > 10 µM

Query: Which value of EC50 has been reported for COc1cc(NC(C)=O)ccc1-c1noc(-c2ccc3nonc3c2)n1 in the records?
Result: > 10 µM

Query: Which value of EC50 has been reported for COc1ccccc1-c1noc(-c2cnc3c(c2)nnn3C(C)C)n1 in the records?
Result: < 10 µM

Query: Which value of EC50 has been reported for Cc1nccnc1-c1nc(-c2ccc3c(c2)nnn3CC(C)(C)CO)no1 in the records?
Result: > 10 µM

Query: Which value of EC50 has been reported for COc1ccccc1-c1noc(-c2ccc3c(ccn3C(C)C)c2)n1 in the records?
Result: < 10 µM

Query: Which value of EC50 has been reported for Cc1ccncc1-c1noc(-c2cnc3c(c2)nnn3C(C)C)n1 in the records?
Result: > 10 µM

Query: Which value of EC50 has been reported for CCC1(CC)CC(=O)c2cc(-c3nc(-c4ccoc4)no3)ccc2O1 in the records?
Result: < 10 µM

Query: Which value of EC50 has been reported for CCC1(CC)CC(=O)c2cc(-c3nc(-c4ccc(C)nc4)no3)ccc2O1 in the records?
Result: < 10 µM

Query: Which value of EC50 has been reported for CC(C)Nc1ccc(-c2nc(-c3ccc4c(c3)CCNC4=O)no2)cc1C#N in the records?
Result: < 10 µM

Query: Which value of EC50 has been reported for N#Cc1cc(-c2nnc(-c3cccc4[nH]cnc34)o2)ccc1NCC(F)F in the records?
Result: < 10 µM

Query: Which value of EC50 has been reported for CC(C)n1ccc2cc(-c3noc(-c4ccncc4F)n3)ccc21 in the records?
Result: < 10 µM
